targetSystem: Insulin (UniProt P01308+P01308)
Sequence (P01308 25-54, chain 1 of 2): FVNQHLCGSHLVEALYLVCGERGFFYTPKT
Sequence (P01308 90-110, chain 2 of 2): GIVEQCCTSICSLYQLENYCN
testMethodNotes: flow
conditionParameters: dT replaced by C8-alkyne-dU clicked with phenylalanine azide (positions incorporated by polymerase); bead-based assay, buffer
assayReadout: Kd (nM)
Numeric answer only, unit nM assumed.

Enquiry: For the sequence GCGCATACCAGCTTATTCAATCGTCGAGAACTCCTCCGGCTCTAACTCCGATTATAGCCAAAGATAGTAAGTGCAATCTCGGC [Ins24] , what Kd is on record?
Return: 2560
